Tested on: SF-539 CNS
Experiment: NCI tumour cell line growth inhibition, 48 h
PARAMETER: TGI (µM)
Please respond with the number in µM and leave the unit unwritten.

Problem: Provide TGI value for the following compound: CC(C)=C[C@@H]1O[C@H](O)[C@@H]([C@H]2CC[C@@]3(C)[C@@H]4CC[C@H]5C(C)(C)C(=O)CC[C@@]56C[C@@]46CC[C@]23C)[C@@H]1O
Result: 28

Problem: Note down TGI recorded for CCCCN1C(=O)/C(=c2\sc3n(c2=O)C2C(NN=3)N(CC)C(=O)N2CC)c2ccccc21 (centres undefined)
Result: 1.46

Problem: Indicate its recorded TGI; the compound in question is CC12OC(C(=O)C13CCC3)C1C(=O)c3ccc4c(ccc5ccccc54)c3C(=O)C12 (centres undefined)
Result: 66.8

Problem: Check the records and state TGI for O=[N+]([O-])C(C(Cl)=C(Cl)Cl)=C(n1cncn1)n1cncn1
Result: 41.2

Problem: Tell me its TGI given COc1ccc(C2C3=C(COC3=O)OC(C)(C)Oc3cc4c(cc32)OCO4)cc1OC (centres undefined) as the entry.
Result: 72.6

Problem: Hello, please tell me recorded TGI for this one: Nc1ccc(-c2ccc3ncc4ccc(=O)n(-c5cccc(C(F)(F)F)c5)c4c3c2)cn1
Result: 0.039

Problem: Report TGI for COC[C@H]1C(=O)NCC(=O)N2N=CCC[C@H]2C(=O)N(O)[C@H](C)C(=O)O[C@@H](C(C)C)[C@H](NC(=O)[C@@](C)(O)[C@]2(O)CC[C@@H](CC(C)C)[C@H](C)O2)C(=O)N2NCCC[C@@H]2C(=O)N1O
Result: 0.0297

Problem: Identify measured TGI associated with COc1cc(-c2nccc3cc4c(cc23)OCO4)cc(OC)c1OC
Result: 44.1

====

Listing of entries alongside the reported TGI.
Test system: LOX IMVI melanoma
Assay: NCI tumour cell line growth inhibition, 48 h

[
  {
    "COMPOUND": "C=CCn1c(-c2ccc(Cl)cc2)csc1=Nc1ccccc1OC",
    "MEASURED_TARGET": "LOX IMVI melanoma",
    "TGI": "> 100 µM"
  },
  {
    "COMPOUND": "COc1cc(S(=O)(=O)Nc2ccc(-c3csc(N4C(=O)C(Cl)C4c4cccs4)n3)cc2)ccc1Cl (configuration not stated)",
    "MEASURED_TARGET": "LOX IMVI melanoma",
    "TGI": "5.15 µM"
  },
  {
    "COMPOUND": "NS(=O)(=O)c1nnc(NS(=O)(=O)c2ccc([N+](=O)[O-])cc2)s1",
    "MEASURED_TARGET": "LOX IMVI melanoma",
    "TGI": "> 100 µM"
  }
]

Problem: Specify reported TGI for the compound shown: COc1cccc(NC(=O)c2sc3nc4c(cc3c2N)C(O)CCC4)c1 (configuration not stated)
Result: > 100 µM

Problem: Determine from records and report TGI for C=C(CN1c2ccccc2Sc2ccccc21)c1ccc(C(=O)Nc2ccccc2N)cc1
Result: > 100 µM

Problem: # return recorded TGI for entry CC(C)C(=S)N(C)O
Result: 62.5 µM

Problem: Given O=c1[nH]nc(-c2ccc(F)cc2)cc1-c1ccccc1 , respond with its TGI.
Result: > 100 µM

Problem: Tell me measured TGI for CCC(C)(O)c1cn(-c2ccc(S(=O)(=O)O)cc2)nn1 (configuration not stated) please.
Result: > 100 µM

Problem: Identify measured TGI associated with COC[C@H]1C(=O)NCC(=O)N2N=CCC[C@H]2C(=O)N(O)[C@H](C)C(=O)O[C@@H](C(C)C)[C@H](NC(=O)[C@@](C)(O)[C@]2(O)CC[C@@H](CC(C)C)[C@H](C)O2)C(=O)N2NCCC[C@@H]2C(=O)N1O
Result: 0.0316 µM

Problem: Return the recorded TGI value; entry: Cc1ccc(O)c(NC2=C(Cl)C(=O)N(Cc3ccccc3)C2=O)c1
Result: 45.7 µM
